TARGET_OF_ASSAY: Protease (Human immunodeficiency virus 1, UniProt Q9YQ12)
Sequence (Q9YQ12 whole entry): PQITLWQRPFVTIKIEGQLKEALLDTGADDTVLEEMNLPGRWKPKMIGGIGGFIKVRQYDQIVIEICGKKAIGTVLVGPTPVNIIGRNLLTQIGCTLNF
METRIC_NAME: IC50

*Q* Provide measured IC50 value, entry: Cc1c(O)cccc1C(=O)N[C@@H](Cc1ccccc1)[C@H](O)CN(CC(C)C)S(=O)(=O)c1ccc2ncsc2c1
*A* < 0.01 µM

---

For each of the compounds below, state its IC50.
MEASUREMENT_PROTOCOL: Inhibition of HIV reverse transcriptase
Parameters: species or system Human immunodeficiency virus

*Q* Provide measured IC50 value, entry: CCOC(=O)Cc1nnc(NC(=O)[C@@H](CC)Sc2nnnn2-c2ccccc2)s1
*A* 50 nM

*Q* Provide measured IC50 value, entry: CC(C)n1nc(COC(N)=O)c(Cc2ccncc2)c1Sc1cc(Cl)cc(Br)c1
*A* 32 nM

*Q* Provide measured IC50 value, entry: Cc1cc(C)c(-n2nnnc2SCC(=O)Nc2ccccc2Cl)c(C)c1
*A* 5 nM

*Q* Provide measured IC50 value, entry: C=CCn1c(CSc2nc3ccccc3s2)nnc1SCC(=O)NCc1cccnc1
*A* < 100000 nM
